Examples of molecules with documented normalized growth follow.
Assay: chemical genetic growth profiling, strain panel (AID 1159580);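 note: tested at 20 µM; growth read once vehicle control cultures reached saturation at 30 °C; 1 = growth at the plate median or of vehicle wells; lower values mean less growth of the strain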
Conditions: S. cerevisiae deletion strains, growth OD, locus YNL071W, strain lat1, hits give low values
Among all 5,500 compounds or so, about 2,000 (36%) were called active. Not shown: some 18% with an inconclusive outcome. Some of the results follow.
Form field (numeric): enter value without unit.

Recorded results for 4 molecules are shown here.
{"columns": ["MOLECULE", "normalized growth"],
 "data": [
  ["NC(=O)NC1NC(=O)NC1=O (stereo not given)", 1.01],
  ["C1N2CN3CN1CN(C2)C3", 0.973],
  ["CC(=O)OC/C=C(\\C)CC/C=C(\\C)CC/C=C(\\C)CC/C=C(\\C)CC/C=C(\\C)CC/C=C(\\C)CC/C=C(\\C)CC/C=C(\\C)CCC=C(C)C", 0.987],
  ["CC(O)(P(=O)(O)O)P(=O)(O)O", 0.993]
]}

In the following, a different molecule is considered.
Input CCN1C[C@@]2(COC)C3[C@@H](OC)[C@H]4[C@@H]1[C@]3(C(OC)C[C@H]2O)C1C[C@@]2(O)[C@H](OC(=O)c3ccccc3)C1[C@]4(OC(C)=O)[C@@H](O)[C@@H]2OC (stereo not given in full) . Output normalized growth: 1
